These entries and their values trace back to PubChem BioAssay (NCI).

experiment: NCI Yeast Anticancer Drug Screen. Data for the cln2 rad14 strain (AID 165);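 further: 0% = growth equal to vehicle treated cultures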; settings: S. cerevisiae cln2 rad14 strain, at 50.0 µM, hits give high values
The panel holds about 79,000 compounds, 15% with a hit somewhere; the sample as a whole holds those more often.
Outcome: label 1 for growth inhibition of at least 10%; label 0 for anything lower.

Has `Cc1cc(O)cc2oc(=O)ccc12` a recorded growth inhibition greater than or equal to 10%? label 0

Has `CCCCc1c2c(nc3c1CCCC3=O)C(=O)CCC2` a recorded growth inhibition greater than or equal to 10%? label 0

Has NC(N)=NC1CCc2ccccc2C1 (stereo not given) a recorded growth inhibition greater than or equal to 10%? label 0

Has `CN1C(=S)C2=C(c3ccccc3)N(C)C(=S)C2=C1c1ccccc1` a recorded growth inhibition greater than or equal to 10%? label 1

Has `NC(=O)N1CCCCC1` a recorded growth inhibition greater than or equal to 10%? label 0

Has `C=CCCCCCCCCCCCCCCCCC` a recorded growth inhibition greater than or equal to 10%? label 1

Has `Cc1cc(C(C)C)cc(C(C)C)c1` a recorded growth inhibition greater than or equal to 10%? label 0

Has `Cc1ccc(N=Nc2c(O)n(C)c(=O)n(C)c2=O)cc1C` a recorded growth inhibition greater than or equal to 10%? label 0

Has `O=CNC1(c2ccccc2)CCCCC1` a recorded growth inhibition greater than or equal to 10%? label 1

Has CC1C2CC(C/C2=N/O)C1(C)C (stereo not given) a recorded growth inhibition greater than or equal to 10%? label 1

Has CS(=O)(=O)C(C#N)c1nc2ccccc2nc1Cl (stereo not given) a recorded growth inhibition greater than or equal to 10%? label 0

Has CC1=CC(OC2CCCCO2)CC(C)(C)C1 (stereo not given) a recorded growth inhibition greater than or equal to 10%? label 0

Has `CC(=O)OC/C=C1/CC[C@H]2[C@@H]3CCC4=CC(=O)[C@H](C)C[C@]4(C)[C@H]3[C@@H](O)C[C@]12C` a recorded growth inhibition greater than or equal to 10%? label 0

Has `Cc1cc(N)c(C)c2ccncc12` a recorded growth inhibition greater than or equal to 10%? label 0

Has `Cc1ccc(S(=O)(=O)C(C#N)(Cc2c[nH]c3ccccc23)Cc2c[nH]c3ccccc23)cc1` a recorded growth inhibition greater than or equal to 10%? label 0

Has `CC(C)(C)N(C/C=C/CN(Cc1ccccc1)Cc1ccccc1)C(C)(C)C` a recorded growth inhibition greater than or equal to 10%? label 1

Has `COc1ccc(N2C(=O)C(=O)C3(CCCCC3)C2=O)c2ccccc12` a recorded growth inhibition greater than or equal to 10%? label 1

Has `NC(=O)c1ccccc1OCC(=O)O` a recorded growth inhibition greater than or equal to 10%? label 1

Has CC(=O)OC12CC(C)C3(O)C4C=C(C)C(=O)[C@@]4(O)CC(CO)=C[C@H]3C1C2(C)C (stereo not given in full) a recorded growth inhibition greater than or equal to 10%? label 0

Has `N#C/C(=C1/Sc2c(nc[nH]c2=O)N1c1ccccc1)c1nc2ccccc2[nH]1` a recorded growth inhibition greater than or equal to 10%? label 0

Has `CNC(=O)n1cnc2ccccc21` a recorded growth inhibition greater than or equal to 10%? label 1

Has `CN(C)/C(N)=N/S(=O)(=O)c1ccc(C#N)cc1` a recorded growth inhibition greater than or equal to 10%? label 0

Has `N#Cc1cc(Cl)ccc1N=Cc1c(Cl)cccc1Cl` a recorded growth inhibition greater than or equal to 10%? label 1

Has `Cc1nc2cc(C)c(C)cc2[nH]1` a recorded growth inhibition greater than or equal to 10%? label 0

Has NC(=O)C(=O)N/N=C(\CC1(O)C(=O)Nc2ccccc21)c1ccc2ccccc2c1 (stereo not given) a recorded growth inhibition greater than or equal to 10%? label 1
